Every entry's value here was drawn from patent US20230416262A1.

Test system: TFEB
assay-protocol: TFEB nuclear translocation assay
Assay type: cell-based
conditions-used: Homo sapiens; HeLa wt or HeLa TRPML1 KO cells, treated for 2 hrs; ratio of nuclear to ring-region TFEB intensity
pEC50: −log10 of the molar value.

molecule: CC(C)S(=O)(=O)c1ccc(S(=O)(=O)N2CC3(CCN(C(=O)OCc4ccccc4)CC3)c3ccccc32)cc1 [Compound I-181]
assayed-system: TFEB
pEC50: ≥ 5.70
--
molecule: O=C(Nc1cccc(C(F)F)c1)N1CCC2(CC1)CN(S(=O)(=O)c1ccc(C(F)F)cc1)c1ccccc12 [Compound I-221]
assayed-system: TFEB
pEC50: 5.10 to 5.70
--
molecule: CS(=O)(=O)c1ccc(S(=O)(=O)N2CC3(CCCC3)c3ccccc32)cc1F [Compound I-10]
assayed-system: TFEB
pEC50: 5.10 to 5.70
--
molecule: CN(C)S(=O)(=O)c1ccc(S(=O)(=O)N2CC3(CN(Cc4ccccc4)C3)c3ccccc32)cc1 [Compound I-102]
assayed-system: TFEB
pEC50: 5.10 to 5.70
--
molecule: Cc1ccc(F)c(CS(=O)(=O)N2CC3(CCCC3)c3ccccc32)c1 [Compound I-47]
assayed-system: TFEB
pEC50: 5.10 to 5.70
--
molecule: O=S(=O)(C1=Cc2ccccc2OCC1)N1CC2(CCCC2)c2ccccc21 [Compound I-40]
assayed-system: TFEB
pEC50: 5.10 to 5.70
--
molecule: CS(=O)(=O)c1ccc(S(=O)(=O)N2CC3(CCN(c4ccc(Cl)cc4F)CC3)c3ccccc32)cc1 [Compound I-65]
assayed-system: TFEB
pEC50: ≥ 5.70
--
molecule: O=C(OCc1ccccc1)N1CCC2(CC1)CN(C(=O)Cc1ccc(C(F)F)cc1)c1ccccc12 [Compound I-246]
assayed-system: TFEB
pEC50: ≤ 5.00

---

System: TFEB
assay-protocol: TFEB nuclear translocation assay
Type: cell-based
conditions-used: Homo sapiens; HeLa wt or HeLa TRPML1 KO cells, treated for 2 hrs; ratio of nuclear to ring-region TFEB intensity
pEC50: −log10 of the molar value.
property-name: pEC50

compound: O=S(=O)(c1ccc(C(F)F)cc1)N1CC2(CCN(Cc3ccncc3)CC2)c2ccccc21
assayed-system: TFEB
property-name: pEC50
result: ≥ 5.70
--
compound: CCOC[C@]1(C)CC[C@]2(CC1)CN(S(=O)(=O)c1ccc(C(F)F)cc1)c1ccccc12
assayed-system: TFEB
property-name: pEC50
result: ≥ 5.70
--
compound: CN(C)S(=O)(=O)c1ccc(S(=O)(=O)N2CC3(CCN(CC4CCOCC4)C3)c3ccccc32)cc1 (stereo not shown)
assayed-system: TFEB
property-name: pEC50
result: 5.10 to 5.70
--
compound: O=C(OCc1ccccc1)N1CCC2(CC1)CN(S(=O)(=O)Cc1ccc(C(F)F)cc1)c1ccccc12
assayed-system: TFEB
property-name: pEC50
result: ≥ 5.70
--
compound: CN(C(=O)C1CCC2(CC1)CN(S(=O)(=O)c1ccc(C(F)F)cc1)c1ccccc12)c1ccccc1 (stereo not shown)
assayed-system: TFEB
property-name: pEC50
result: ≥ 5.70
--
compound: O=S(=O)(c1ccc(OC(F)F)c(F)c1)N1CC2(CCCC2)c2ccccc21
assayed-system: TFEB
property-name: pEC50
result: ≤ 5.00
--
compound: O=S(=O)(C1=Cc2ccccc2OC1)N1CC2(CCCC2)c2ccccc21
assayed-system: TFEB
property-name: pEC50
result: 5.00 to 5.10
--
compound: CC1(C)COc2ccc(S(=O)(=O)N3CC4(CCCC4)c4c(F)cccc43)cc21
assayed-system: TFEB
property-name: pEC50
result: ≥ 5.70
--
compound: O=C(OCc1ccccc1)N1CCC2(CC1)CN(S(=O)(=O)c1ccc3c(c1)CCS3(=O)=O)c1ccccc12
assayed-system: TFEB
property-name: pEC50
result: ≥ 5.70
--
compound: O=S(=O)(Cc1ccc(F)cc1)N1CC2(CCCC2)c2ccccc21
assayed-system: TFEB
property-name: pEC50
result: ≤ 5.00

---

System: TFEB
assay-protocol: TFEB nuclear translocation assay
Format: cell-based
conditions-used: Homo sapiens; HeLa wt or HeLa TRPML1 KO cells, treated for 2 hrs; ratio of nuclear to ring-region TFEB intensity
property-name: EC50

molecule: CN(C)S(=O)(=O)c1ccc(S(=O)(=O)N2CC3(CCOC3)c3ccccc32)cc1 (centres unmarked) [Compound I-76]
result: 2.01 to 8 µM
--
molecule: CN1CCC2(CC1)CN(S(=O)(=O)c1ccc(C(F)F)cc1)c1ccccc12 [Compound I-83]
result: ≥ 10 µM
--
molecule: O=S(=O)(Cc1ccc2c(c1)COCC2)N1CC2(CCCC2)c2ccccc21 [Compound I-34]
result: 2.01 to 8 µM
--
molecule: O=S(=O)(c1cnc(-c2ccccc2)o1)N1CC2(CCCC2)c2ccccc21 [Compound I-39]
result: ≥ 10 µM
--
molecule: CC1(C)Cc2cc(S(=O)(=O)N3CC4(CCCC4)c4ccccc43)ccc2C1=O [Compound I-51]
result: 8.01 to 9.99 µM
--
molecule: CN(C)S(=O)(=O)c1ccc(S(=O)(=O)N2CC3(CCN(c4ccc(Cl)cc4F)CC3)c3ccccc32)cc1 [Compound I-106]
result: ≤ 2 µM
--
molecule: CN(C)S(=O)(=O)c1ccc(S(=O)(=O)N2CC3(CCCCC3)n3nc(C4CC4)cc32)cc1 [Compound I-257]
result: ≤ 2 µM
--
molecule: CS(=O)(=O)Nc1ccc(S(=O)(=O)N2CC3(CCCC3)c3ccccc32)cc1 [Compound I-63]
result: ≥ 10 µM

---

Tested on: THP-1 cells
assay-protocol: Lamp1 lysosomal exocytosis assay
Assay type: cell-based
conditions-used: Homo sapiens, 55 min, 55 min incubation, top dose 20 μM
pEC50: −log10 of the molar value.

compound: CN(C(=O)C1CCC2(CC1)CN(S(=O)(=O)c1ccc(C(F)F)cc1)c1ccccc12)c1ccnn1C (stereo not drawn)
assayed-system: THP-1 cells
pEC50: ≤ 5.30
--
compound: O=S(=O)(c1ccc(C(F)F)cc1)N1CC2(CCN(Cc3cccnc3)CC2)c2ccccc21
assayed-system: THP-1 cells
pEC50: ≤ 5.30
--
compound: CC1(C)COc2ccc(S(=O)(=O)N3CC4(CCCCC4)c4ccccc43)cc21
assayed-system: THP-1 cells
pEC50: ≤ 5.30
--
compound: CN(C)S(=O)(=O)c1ccc(S(=O)(=O)N2CC3(CCN(CC(F)(F)F)CC3)c3ccccc32)cc1
assayed-system: THP-1 cells
pEC50: 6.00 to 6.29
--
compound: O=C(Nc1cccnc1)N1CCC2(CC1)CN(S(=O)(=O)c1ccc(C(F)F)cc1)c1ccccc12
assayed-system: THP-1 cells
pEC50: ≤ 5.30
--
compound: O=C(OCc1ccccc1)N1CCC2(CC1)CN(S(=O)(=O)c1ccc(C(F)(F)C3CC3)cc1)c1ccccc12
assayed-system: THP-1 cells
pEC50: ≥ 6.30
--
compound: O=S(=O)(c1ccc(OC(F)(F)F)cc1)N1CC2(CCCC2)c2ccccc21
assayed-system: THP-1 cells
pEC50: ≤ 5.30
--
compound: CCn1cc(COC(=O)N2CCC3(CC2)CN(S(=O)(=O)c2ccc(C(F)F)cc2)c2ccccc23)cn1
assayed-system: THP-1 cells
pEC50: 6.00 to 6.29
--
compound: CCOCCNC(=O)N1CCC2(CC1)CN(S(=O)(=O)c1ccc(C(F)F)cc1)c1ccccc12
assayed-system: THP-1 cells
pEC50: ≤ 5.30
--
compound: O=C(NCC1CC1)C1CCC2(CC1)CN(S(=O)(=O)c1ccc(C(F)F)cc1)c1ccccc12 (stereo not drawn)
assayed-system: THP-1 cells
pEC50: ≤ 5.30
--
compound: O=C(NC1CC(F)(F)C1)N1CCC2(CC1)CN(S(=O)(=O)c1ccc(C(F)F)cc1)c1ccccc12
assayed-system: THP-1 cells
pEC50: ≤ 5.30
--
compound: CC1(C)Cc2cc(S(=O)(=O)N3CC4(CCN(C(=O)OCc5ccccc5)CC4)c4ccccc43)ccc2O1
assayed-system: THP-1 cells
pEC50: ≥ 6.30
--
compound: CC(F)(F)CN1CCC2(CC1)CN(S(=O)(=O)c1ccc(C(F)F)cc1)c1ccccc12
assayed-system: THP-1 cells
pEC50: ≤ 5.30
--
compound: O=C(NCC(F)F)N1CCC2(CC1)CN(S(=O)(=O)c1ccc(C(F)F)cc1)c1ccccc12
assayed-system: THP-1 cells
pEC50: ≤ 5.30
--
compound: O=C(NC1CCC(F)(F)CC1)N1CCC2(CC1)CN(S(=O)(=O)c1ccc(C(F)F)cc1)c1ccccc12
assayed-system: THP-1 cells
pEC50: ≤ 5.30
--
compound: COC1CCC2(CC1)CN(S(=O)(=O)c1ccc(S(=O)(=O)N(C)C)cc1)c1ccccc12 (stereo not drawn)
assayed-system: THP-1 cells
pEC50: 5.30 to 6.00
--
compound: O=C(CC1CCCO1)N1CCC2(CC1)CN(S(=O)(=O)c1ccc(C(F)F)cc1)c1ccccc12 (stereo not drawn)
assayed-system: THP-1 cells
pEC50: ≤ 5.30
--
compound: O=S(=O)(c1ccc(C(F)F)cc1)N1CC2(CCC(F)(F)CC2)c2ccccc21
assayed-system: THP-1 cells
pEC50: ≤ 5.30
--
compound: Cc1cc2n(n1)C1(CCCCC1)CN2S(=O)(=O)c1ccc(C(F)F)cc1
assayed-system: THP-1 cells
pEC50: ≤ 5.30
--
compound: CN(C)S(=O)(=O)c1ccc(S(=O)(=O)N2CC3(CCCC3)n3nccc32)cc1
assayed-system: THP-1 cells
pEC50: ≤ 5.30
--
compound: O=S(=O)(c1ccc2c(c1)CCC2)N1CC2(CCCC2)c2ccccc21
assayed-system: THP-1 cells
pEC50: ≤ 5.30
--
compound: CCOC[C@]1(C)CC[C@]2(CC1)CN(S(=O)(=O)c1ccc(C(F)F)cc1)c1ccccc12
assayed-system: THP-1 cells
pEC50: ≥ 6.30
--
compound: O=C(OCc1ccccc1)N1CCC2(CC1)CN(C(=O)Cc1ccc(C(F)F)cc1)c1ccccc12
assayed-system: THP-1 cells
pEC50: ≤ 5.30
--
compound: O=C(NCC1CCOCC1)N1CCC2(CC1)CN(S(=O)(=O)c1ccc(C(F)F)cc1)c1ccccc12
assayed-system: THP-1 cells
pEC50: ≤ 5.30
--
compound: CCn1ccc(COC(=O)N2CCC3(CC2)CN(S(=O)(=O)c2ccc(C(F)F)cc2)c2ccccc23)n1
assayed-system: THP-1 cells
pEC50: 6.00 to 6.29
--
compound: O=C(OCc1ccccc1)N1CCC2(CC1)CN(C(=O)Oc1ccc(C(F)F)cc1)c1ccccc12
assayed-system: THP-1 cells
pEC50: ≤ 5.30
--
compound: O=C(NC1CCS(=O)(=O)CC1)N1CCC2(CC1)CN(S(=O)(=O)c1ccc(C(F)F)cc1)c1ccccc12
assayed-system: THP-1 cells
pEC50: ≤ 5.30
--
compound: O=C(OCc1ccccc1)N1CCC2(CC1)CN(S(=O)(=O)c1ccc3c(c1)COC3)c1ccccc12
assayed-system: THP-1 cells
pEC50: ≥ 6.30
--
compound: CC(C)C(=O)N1CC2(CCN(C(=O)OCc3ccccc3)CC2)c2ccccc21
assayed-system: THP-1 cells
pEC50: ≤ 5.30
--
compound: COc1cccc(NC(=O)N2CCC3(CC2)CN(S(=O)(=O)c2ccc(C(F)F)cc2)c2ccccc23)c1OC
assayed-system: THP-1 cells
pEC50: ≤ 5.30
